target: UniProt P22303; experiment: Inhibition of human recombinant AChE by Lineweaver-Burk plot analysis
pKi: −log10 of the molar value.

{"columns": ["smiles.repr", "pKi"],
 "data": [
  ["c1cc[n+](CCCCCCCCCCCC[n+]2cccc3ccccc32)cc1", 7.70]
]}

* * *

Below, each of the molecules is paired with its reported IC50 value.
molecular target: Acetylcholinesterase (Homo sapiens, UniProt P22303); assay: Inhibition of human recombinant AChE after 5 mins by Ellman's method
Sequence (P22303 whole entry): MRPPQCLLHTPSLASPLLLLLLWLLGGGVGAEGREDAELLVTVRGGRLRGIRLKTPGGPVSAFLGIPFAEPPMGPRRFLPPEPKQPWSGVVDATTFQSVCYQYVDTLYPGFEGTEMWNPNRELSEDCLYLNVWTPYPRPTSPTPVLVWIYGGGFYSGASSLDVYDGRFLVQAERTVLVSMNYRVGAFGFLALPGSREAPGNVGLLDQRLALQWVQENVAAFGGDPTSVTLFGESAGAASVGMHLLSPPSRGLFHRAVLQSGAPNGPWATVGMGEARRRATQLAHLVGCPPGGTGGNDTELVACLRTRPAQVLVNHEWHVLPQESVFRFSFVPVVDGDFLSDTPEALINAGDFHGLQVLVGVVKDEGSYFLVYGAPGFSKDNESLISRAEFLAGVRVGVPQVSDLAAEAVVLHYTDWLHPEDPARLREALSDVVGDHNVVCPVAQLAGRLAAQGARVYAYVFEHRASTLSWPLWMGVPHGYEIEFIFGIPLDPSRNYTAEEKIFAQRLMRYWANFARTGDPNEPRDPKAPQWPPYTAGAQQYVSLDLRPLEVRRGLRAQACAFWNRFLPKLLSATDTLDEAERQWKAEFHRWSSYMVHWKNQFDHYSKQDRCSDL
readout.name: IC50 (µM)

{"columns": ["smiles.repr", "unit.abbreviation", "experimental.result"],
 "data": [
  ["c1cc[n+](CCCCCCCC[n+]2cccc3ccccc32)cc1", "µM", 0.27],
  ["c1cc[n+](CCCCCCCCCCCC[n+]2cccc3ccccc32)cc1", "µM", 0.0047],
  ["c1cc[n+](CCCCCCCC[n+]2ccc3ccccc3c2)cc1", "µM", 0.14],
  ["c1cc[n+](CCCCCCC[n+]2ccc3ccccc3c2)cc1", "µM", 0.8],
  ["c1cc[n+](CCCCCCCCCC[n+]2ccc3ccccc3c2)cc1", "µM", 0.02],
  ["c1cc[n+](CCCCCCCCCCC[n+]2ccc3ccccc3c2)cc1", "µM", 0.03],
  ["c1cc[n+](CCCCCCCCCCC[n+]2cccc3ccccc32)cc1", "µM", 0.017],
  ["c1cc[n+](CCCCCCCCC[n+]2cccc3ccccc32)cc1", "µM", 0.12],
  ["c1cc[n+](CCCCCCCCC[n+]2ccc3ccccc3c2)cc1", "µM", 0.04],
  ["c1cc[n+](CCCCCCC[n+]2cccc3ccccc32)cc1", "µM", 0.54]
]}
